target: USP30 (Homo sapiens (Human)); assay: Dundee MALDI-TOF mass spectrometry assay (K48-linked diubiquitin cleavage); assay type: biochemical; conditions: USP30 25 ng/μl, K48-linked diubiquitin 5.6 μM, read-out: USP30 IC50 μM (avg)
Sequence (Q70CQ3 whole entry): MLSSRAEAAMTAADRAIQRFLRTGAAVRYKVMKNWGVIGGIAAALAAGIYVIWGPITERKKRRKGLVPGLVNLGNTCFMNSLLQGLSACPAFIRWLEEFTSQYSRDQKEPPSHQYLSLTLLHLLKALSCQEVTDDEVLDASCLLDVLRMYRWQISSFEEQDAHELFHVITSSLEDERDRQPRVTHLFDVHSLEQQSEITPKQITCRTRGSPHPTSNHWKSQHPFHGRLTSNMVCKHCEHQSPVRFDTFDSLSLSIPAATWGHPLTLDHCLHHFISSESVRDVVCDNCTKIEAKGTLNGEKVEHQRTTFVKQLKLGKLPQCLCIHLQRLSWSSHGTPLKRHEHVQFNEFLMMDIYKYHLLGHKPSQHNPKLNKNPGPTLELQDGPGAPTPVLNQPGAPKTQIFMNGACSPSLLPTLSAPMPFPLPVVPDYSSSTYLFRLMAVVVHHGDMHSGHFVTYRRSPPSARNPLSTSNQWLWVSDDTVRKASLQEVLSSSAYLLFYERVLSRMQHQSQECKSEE

molecule	IC50
O=C(N[C@@H](CC1CCNCC1)C(=O)Nc1ccc(S(=O)(=O)N[C@@H]2CCOC2)cc1)c1ccc(F)cc1 [Compound I-107]	0.05 to 1 µM
COCCN1CCC(C[C@H](NC(=O)c2ccc(F)cc2)C(=O)Nc2ccc(S(=O)(=O)NC(C)(C)C)cc2)CC1 [Compound I-173]	< 0.05 µM
Cn1cncc1CNS(=O)(=O)c1ccc(NC(=O)[C@H](Cc2ccccc2)NC(=O)c2ccc(F)cc2)cc1 [Compound I-227]	0.05 to 1 µM
O=C(N[C@@H](CC1CCOCC1)C(=O)Nc1ccc(S(=O)(=O)NC2CCOCC2)nc1)c1ccc(F)cc1 [Compound I-133]	< 0.05 µM
O=C(N[C@@H](Cc1ccccc1)C(=O)Nc1ccc(S(=O)(=O)NC2(CO)CC2)cc1)c1ccc(F)cc1 [Compound I-131]	< 0.05 µM
COc1cc(NC(=O)[C@H](CC2CCOCC2)NC(=O)c2ccc(F)cc2)ccc1S(=O)(=O)NC1CCCC1 [Compound I-87]	< 0.05 µM
O=C(N[C@@H](CC1CCNCC1)C(=O)Nc1ccc(S(=O)(=O)NC2CCOCC2)cc1)c1ccc(F)cc1 [Compound I-157]	0.05 to 1 µM

====

target: recombinant USP30 (amino acids 57-517 of the human sequence) (Homo sapiens (Human)); experiment: In vitro USP30 biochemical assay (Ubiquitin-Rhodamine substrate); settings: […] recombinant USP30, 25 nM Ubiquitin-Rhodamine, fluorescence
Sequence (Q70CQ3 57-517): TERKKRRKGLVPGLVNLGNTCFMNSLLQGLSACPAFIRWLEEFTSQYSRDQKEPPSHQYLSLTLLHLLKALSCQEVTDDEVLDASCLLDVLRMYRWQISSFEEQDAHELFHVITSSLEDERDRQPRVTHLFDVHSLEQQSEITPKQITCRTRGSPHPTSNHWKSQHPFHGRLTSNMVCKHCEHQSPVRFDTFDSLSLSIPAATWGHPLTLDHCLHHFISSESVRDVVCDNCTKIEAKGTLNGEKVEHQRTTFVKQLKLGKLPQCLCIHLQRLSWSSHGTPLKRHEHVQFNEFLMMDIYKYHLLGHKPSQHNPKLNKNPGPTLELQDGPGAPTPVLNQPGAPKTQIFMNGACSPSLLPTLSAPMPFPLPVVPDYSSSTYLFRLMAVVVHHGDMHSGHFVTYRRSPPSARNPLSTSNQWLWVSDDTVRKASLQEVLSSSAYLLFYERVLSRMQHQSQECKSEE

compound	IC50
COc1cc(NC(=O)[C@H](CC2CCOCC2)NC(=O)c2ccc(F)cc2)ccc1S(=O)(=O)NC(C)(C)C [Compound I-2]	< 0.05 µM
COc1cc(NC(=O)[C@@H]2C[C@@H](C3CCCCC3)CN2C(=O)c2ccc(F)cc2)cnc1S(=O)(=O)NC(C)(C)CO [Compound I-256]	> 10 µM
CC(C)(C)NS(=O)(=O)c1ccc(NC(=O)[C@H](CC2CCOCC2)NC(=O)c2ccc(F)nc2)cc1 [Compound I-196]	< 0.05 µM
CNS(=O)(=O)N1CCC(NC(=O)[C@H](Cc2ccccc2)NC(=O)c2ccc(F)cc2)CC1 [Compound I-118]	> 10 µM
CC(C)(CN1CCOCC1)NS(=O)(=O)c1ccc(NC(=O)[C@H](CO)NC(=O)c2ccc(F)cc2)cc1 [Compound I-36]	> 10 µM
O=C(Nc1ccc(S(=O)(=O)N[C@@H]2CCOC2)cc1)[C@@H]1C[C@@H](c2ccccc2)CN1C(=O)c1ccc(F)cc1 [Compound I-92]	1 to 10 µM
CC(C)(C)NS(=O)(=O)c1ccc(NC(=O)[C@H](Cc2ccccc2)NC(=O)c2ccc(F)cc2)cc1C(F)(F)F [Compound I-70]	< 0.05 µM
N#CN1CCC(NC(=O)[C@H](Cc2ccccc2)NC(=O)c2ccc(F)cc2)CC1 [Compound I-124]	> 10 µM
COc1cc(NC(=O)[C@H](CC2CCOCC2)NC(=O)c2ccc(F)cc2)ccc1S(=O)(=O)NC1CCC1 [Compound I-86]	< 0.05 µM
CC(C)(C)NS(=O)(=O)c1ccc(NC(=O)[C@@H]2C[C@@H](O)CN2C(=O)c2ccc(F)cc2)cc1 [Compound I-264]	> 10 µM
Cn1ccc(N2CCC(C[C@H](NC(=O)c3ccc(F)cc3)C(=O)Nc3ccc(S(=O)(=O)NC(C)(C)C)nc3)CC2)n1 [Compound I-293]	< 0.05 µM
CC(C)(C)NS(=O)(=O)c1ccc(NC(=O)C(CC2CCN(CCO)CC2)NC(=O)c2ccc(F)cc2)cc1 (centres unmarked) [Compound I-121]	< 0.05 µM
CC(C)(C)NS(=O)(=O)c1ccc(NC(=O)[C@H](Cc2ccccc2)NC(=O)c2ncccn2)cc1 [Compound I-191]	> 10 µM
CNCCN1CCC(C[C@H](NC(=O)c2ccc(F)cc2)C(=O)Nc2ccc(S(=O)(=O)NC(C)(C)C)cc2)CC1 [Compound I-171]	< 0.05 µM

FYI, the data here is from patent US20250162989A1.
